# measurementTarget: RSV F protein of subtype B strain 18537, on virus (respiratory syncytial virus subtype B …, UniProt P13843 26-574)
# Sequence (P13843 26-574): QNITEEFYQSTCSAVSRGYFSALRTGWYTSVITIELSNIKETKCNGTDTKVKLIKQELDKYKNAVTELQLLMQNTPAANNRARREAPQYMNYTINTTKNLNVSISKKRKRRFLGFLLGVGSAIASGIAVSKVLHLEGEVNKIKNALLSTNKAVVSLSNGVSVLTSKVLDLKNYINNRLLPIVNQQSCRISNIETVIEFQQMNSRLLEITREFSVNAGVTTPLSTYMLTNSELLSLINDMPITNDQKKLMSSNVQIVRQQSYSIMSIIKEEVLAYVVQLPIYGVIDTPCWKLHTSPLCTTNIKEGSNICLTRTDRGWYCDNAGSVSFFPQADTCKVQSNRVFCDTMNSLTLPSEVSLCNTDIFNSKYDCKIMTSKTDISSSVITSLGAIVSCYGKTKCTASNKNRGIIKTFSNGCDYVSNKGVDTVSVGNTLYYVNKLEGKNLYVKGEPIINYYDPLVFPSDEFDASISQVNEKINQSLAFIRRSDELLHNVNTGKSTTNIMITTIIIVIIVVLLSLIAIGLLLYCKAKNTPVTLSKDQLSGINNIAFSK
# assayNotes: cell-based or functional assay
Attribute: Neut IC50 (ug/ml) subtype B

Reference set (8 entries):
{"binder": "ADI-15590 (antibody, V domains shown) VH: EVQLLESGGLVVQPGGSLRLSCAASGFIFDDYTMHWVRQAPGKGLEWISLISWDSLDTYYAGSVQGRFTISRDNSRNSLYLRMNSLRPEDTALYYCAKTKYRGTYYYFDSWGQGTLVTVSS VL: DIRVTQSPSSLSASVGDRVTITCQASQDISNYLNWYQQKPGKAPKLLIYDASNLETGVPSRFSGRGSGTDFTFTISSLQPEDIATYYCQQYDNLPPVTFGPGTKVEIK", "Neut IC50 (ug/ml) subtype B": "> 10 µg/mL"}
{"binder": "ADI-15604 (antibody, V domains shown, IgG; also called Antibody Number 170) VH: EVQLLESGGGLVKPGGSLRLSCGASGFKFSDYYMSWIRQAPGKGLEWVSHISSSNSYINYADSVKGRFTISRDNARNSLSLQMNSLRAEDTAVYYCARFPLYCSRSSCSHYVDYWGQGTLVTVSS VL: QSVLTQPPSVSGAPGQRVTISCTGSGSNIGAGYDVHWYQQLPGTAPKLLIYDNNNRPSGVPDRFSGSKSGTSASLAITGLQVEDEADYYCQSYDRSLSVVFGGGTKVTVL", "Neut IC50 (ug/ml) subtype B": "0.082 µg/mL"}
{"binder": "ADI-15641 (antibody, V domains shown, IgG; also called Antibody Number 205) VH: QVQLVESGGGVVQPGRSLRVSCAASGFDFSNYAMHWVRQAPGKGLEWVALISYDGNNKVYADSVKGRFTVSRDNSKNTLYLQMNSLRPEDTAVIYCAKDGYLAPDFWGQGTLVTVSS VL: QSVLTQPASVSGSPGQSIIISCTGTSSDVGEYDYVSWYQHHPHKAPKLIIYEVSNRPSGVSNRFSGSKSGNTASLTISGLQAEDEADYYCSSYTSSSGQAFGTGTKVTVL", "Neut IC50 (ug/ml) subtype B": "0.483 µg/mL"}
{"binder": "ADI-15005 (antibody, V domains shown, IgG; also called Antibody Number 124) VH: QVQLVESGPALVKPTQTLTLTCSFSGFSLTTRRMCVSWIRQTPGKALEWLARIDWDDDKDYSTSLKTRLTISKDTSKNQVVLTMTNMDPVDTATYYCARTHIYDSSGYYLYYFDYWGQGTLVTVSS VL: DIVLTQSPSSLSASIGDRVTITCRASQTIASYLNWYQQKPGKAPELLIYAATNLQSGVPSRFSGSGSGTDFTLTISSLRPEDFASYYCQQSYSSPWTFGQGTKVDIK", "Neut IC50 (ug/ml) subtype B": "2.53 µg/mL"}
{"binder": "ADI-15601 (antibody, V domains shown, IgG) VH: EVQLLETGGGLVKPGGSLRLSCEATGFTFSDFAMSWVRQAPGKGLEWVSLIKSSDYPYYADSVRGRFTISRDNSKNTLYLRMDNLRADDTAVYYCAKDADFWSGEAYNGGYNFDSWGQGTLVTVSS VL: EIVLTQSPATLSVSPGERATLSCRASQSIGTNLAWYQQKPGQAPRLLIFGASTRATGIPARFTGSGSGTEFTLTIGSLQSEDFAVYYCQQYNQWPPITFGGGTKVEIK", "Neut IC50 (ug/ml) subtype B": "0.084 µg/mL"}
{"binder": "ADI-15659 (antibody, V domains shown, IgG; also called Antibody Number 223) VH: QVQLVQSGAEVKKPGSSVKVSCKASGGTFSTYGISWVRQAPGQGLEWMGRVIPMFGTATYAQKFQDRVTITADKATSTAYMELNSLRSDDTAVYYCARCPPFEGVRPPWFDPWGQGTLVTVSS VL: SYELTQPPSVSVAPGRTAKITCGGYNIGNKRVHWYRQRPGQAPVLIVYDNADRPSGIPERFSGSNSGNTATLTISNVAAGDEADYHCQVWETSSDHPVFGGGTKLTVL", "Neut IC50 (ug/ml) subtype B": "> 10 µg/mL"}
{"binder": "ADI-15611 (antibody, V domains shown, IgG) VH: QVQLVESGAEVKKPGSSVKVSCKASGGTFGRDSISWVRQAPGQGLEWMGGINPIFHTSHYAQKFQGRVTITADESTSTAYMELGNLRSEDTAMYYCARVPPPRGHCESTSCLWGTYFAFWGQGTLVTVSS VL: ETTLTQSPATLSLSPGERATLSCRASQRVRSYLAWYQQKPGQAPRLLIYDASIRATGIPARFSGSGSGADFTLTISSLEPEDFAVYYCQLRDYWPPTWTFGQGTKVEIK", "Neut IC50 (ug/ml) subtype B": "0.432 µg/mL"}
{"binder": "ADI-15607 (antibody, V domains shown) VH: QVQLVQSGGGLVQPGGSLRLSCAASRFTFSSYAMSWVRQAPGKGLEWVSTISGSGISTYYADSVKGRFTISRDNSKNTLYLQMNSLSAEDTAVYYCAKELREYYYDSSGFDYWGQGTLVTVSS VL: QPVLTQSRSVSGSPEQSVTISCTGTSSDVGGYNYVSWYQQHPGKAPKLMIYDVSKRPSGVPDRFSGSKSGNTASLTISGLQAEDESDYYCCSYAGTYTYVFGTGTKVTVL", "Neut IC50 (ug/ml) subtype B": "> 10 µg/mL"}

// query Can you look up the measured Neut IC50 (ug/ml) subtype B of ADI-15557 (antibody, V domains shown, IgG) VH: QVQLVQSGAEVKRPGSSVKVSCKASGGTFSSFAINWVRQAPGQGLEWMGGLIPIFGTPNNAQKFQGRVTITADESTSTAYMELSSLRSEDTAVYYCASLRYFDWQPGGSYWFDPWGQGTLVTVSS VL: QPGLTQPPSVSVAPGKTARIACGGDNIGTKGVHWYQQKPGQAPVLVIYYDSDRPSGIPERFSGSNSGNTATLTISGVEAGDEADYYCQVWDTIDDHKDGLFGGGTKLTVL for me?
// result 0.028 µg/mL

// query Can you look up the measured Neut IC50 (ug/ml) subtype B of ADI-15644 (antibody, V domains shown, IgG) VH: QVQLVQSGAEVKKPGSSVKVSCRTSGGTFSSFSISWVRQAPGQGLEWMGGIIPIFGTANYAKKFQGRVTITADESTDTAYMELRSLRSEDTAVYYCARDSPKISATEYYFDYWGQGTLVTVSS VL: DIQVTQSPSTLSASVGDRVTITCRASQSFTSWLAWYQQKPGKAPKLLIYKASTLDSGVPSRFSGSGSGTEFTLTINGLQPDDFATYYCQHYDSYSGTFGQGTRLEIK for me?
// result > 10 µg/mL
